# maps each entry to its EC50
- Assay Target: Protein arginine N-methyltransferase 5 (Homo sapiens)
- Assay Details: Inhibition of PRMT5 in human Z138 cells assessed as decrease in di-methyl arginine levels after 96 hrs by Western blot method

Recorded EC50, per entry:
[[record]]
molecule = "CC(Oc1cccc2cccnc12)C(=O)NCC(O)CN1CCc2ccccc2C1 (stereo not drawn)"
assay_result = "< 100 nM"

[[record]]
molecule = "Cn1ccc2ccc(-c3cccc(OCC(O)CN4CCc5ccccc5C4)c3)nc21 (stereo not drawn)"
assay_result = "101 to 1000 nM"

[[record]]
molecule = "COC(=O)c1cccc(-c2cccc(OCC(O)CN3CCc4ccccc4C3)c2)c1 (stereo not drawn)"
assay_result = "> 20000 nM"


What measured EC50 goes with CN1CCOc2cccc(OCC(=O)NCC(O)CN3CCc4ccccc4C3)c21 (stereo not drawn) ?
< 100 nM

What measured EC50 goes with O=C(CNc1ccccc1)NCC(O)CN1CCc2ccccc2C1 (stereo not drawn) ?
1000 to 10000 nM

What measured EC50 goes with Cn1ncc2c(OCC(=O)NCC(O)CN3CCc4ccccc4C3)cccc21 (stereo not drawn) ?
< 100 nM

What measured EC50 goes with CS(=O)(=O)c1cccc(-c2cccc(OCC(O)CN3CCc4ccccc4C3)c2)c1 (stereo not drawn) ?
1000 to 10000 nM

What measured EC50 goes with CN1CCN(C(=O)Cn2ccc3cnc(-c4cccc(OCC(O)CN5CCc6ccccc6C5)c4)nc32)CC1 (stereo not drawn) ?
101 to 1000 nM

====

# maps each entry to its IC50
- Assay Target: PRMT5/MEP50 complex (Homo sapiens, UniProt O14744)
- Sequence (Q9BQA1 whole entry, one chain of several, further chain, the tested form may be a part): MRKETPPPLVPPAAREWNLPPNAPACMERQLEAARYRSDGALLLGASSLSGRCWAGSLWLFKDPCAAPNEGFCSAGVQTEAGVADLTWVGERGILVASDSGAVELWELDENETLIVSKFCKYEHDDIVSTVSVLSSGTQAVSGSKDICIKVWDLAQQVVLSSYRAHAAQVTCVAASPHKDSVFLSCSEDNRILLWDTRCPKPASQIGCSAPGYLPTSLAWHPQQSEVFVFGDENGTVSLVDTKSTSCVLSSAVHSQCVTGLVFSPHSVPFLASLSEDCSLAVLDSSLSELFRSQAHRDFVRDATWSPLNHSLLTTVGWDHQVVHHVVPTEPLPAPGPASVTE
- Assay Details: Inhibition of recombinant human fetal brain FLAG-tagged PRMT5/full length human testis 6His-tagged MEP50 expressed in baculovirus infected insect Sf9 cells using human histone H4 (1 to 15 residues) as substrate preincubated for 30 mins followed by [3H]-SAM addition

Recorded IC50, per entry:
[[record]]
molecule = "O=C1CN(Cc2ccccc2)CCN1CC(O)CN1CCc2ccccc2C1 (stereo not given)"
assay_result = "1000 to 10000 nM"

[[record]]
molecule = "O=C(COCc1cccnc1)NCC(O)CN1CCc2ccccc2C1 (stereo not given)"
assay_result = "1000 to 10000 nM"

[[record]]
molecule = "OCc1cccc(-c2cccc(OCC(O)CN3CCc4ccccc4C3)c2)c1 (stereo not given)"
assay_result = "101 to 1000 nM"

[[record]]
molecule = "O=C(Nc1cccnc1)c1cccc(OCC(O)CN2CCc3ccccc3C2)c1 (stereo not given)"
assay_result = "1000 to 10000 nM"

[[record]]
molecule = "CN(c1cccc(OCC(=O)NCC(O)CN2CCc3ccccc3C2)c1)S(C)(=O)=O (stereo not given)"
assay_result = "101 to 1000 nM"


Turning now to a further record.
What measured IC50 goes with OC(COc1cccc(-c2ccccc2C(F)(F)F)c1)CN1CCc2ccccc2C1 (stereo not given) ?
101 to 1000 nM

====

- Assay Target: Protein arginine N-methyltransferase 5 (Homo sapiens, UniProt O14744)
- Sequence (O14744 whole entry): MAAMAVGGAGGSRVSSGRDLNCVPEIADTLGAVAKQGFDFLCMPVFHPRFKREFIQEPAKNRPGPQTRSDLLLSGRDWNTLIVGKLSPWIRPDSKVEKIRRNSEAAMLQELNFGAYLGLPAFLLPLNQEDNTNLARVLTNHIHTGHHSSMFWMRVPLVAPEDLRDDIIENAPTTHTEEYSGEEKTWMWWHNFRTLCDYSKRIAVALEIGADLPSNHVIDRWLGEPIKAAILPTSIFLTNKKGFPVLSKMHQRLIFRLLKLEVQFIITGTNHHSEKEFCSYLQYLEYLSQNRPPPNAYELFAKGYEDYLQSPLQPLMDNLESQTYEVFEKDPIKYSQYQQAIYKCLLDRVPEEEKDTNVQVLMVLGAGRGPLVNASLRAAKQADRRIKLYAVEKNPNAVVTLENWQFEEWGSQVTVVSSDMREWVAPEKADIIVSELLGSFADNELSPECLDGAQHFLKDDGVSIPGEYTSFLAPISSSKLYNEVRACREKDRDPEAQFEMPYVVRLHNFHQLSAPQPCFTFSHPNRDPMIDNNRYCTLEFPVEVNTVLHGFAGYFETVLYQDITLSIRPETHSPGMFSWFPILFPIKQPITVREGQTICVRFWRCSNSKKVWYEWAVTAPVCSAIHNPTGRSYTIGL
- Assay Details: Inhibition of PRMT5 in human Z138 cells assessed as decrease in di-methyl arginine levels after 96 hrs by Western blot method
Parameter Measured: EC50

[[record]]
compound = "OC(COc1cccc(-c2cccnc2F)c1)CN1CCc2ccccc2C1 (configuration not stated)"
assay_target = "Protein arginine N-methyltransferase 5 (Homo sapiens, UniProt O14744)"
parameter_measured = "EC50"
assay_result = "1 to 10 µM"


Query the reported EC50 for Protein arginine N-methyltransferase 5 (Homo sapiens, UniProt O14744); item: O=C(NCC(O)CN1CCc2ccccc2C1)c1cccc(OC2CCOCC2)c1 (configuration not stated)
0.101 to 1 µM

Query the reported EC50 for Protein arginine N-methyltransferase 5 (Homo sapiens, UniProt O14744); item: OC(COc1cccc(-c2ccc3ncoc3c2)c1)CN1CCc2ccccc2C1 (configuration not stated)
1 to 10 µM

====

- Assay Target: PRMT5/MEP50 complex (Homo sapiens, UniProt O14744)
- Assay Details: Inhibition of recombinant human fetal brain FLAG-tagged PRMT5/full length human testis 6His-tagged MEP50 expressed in baculovirus infected insect Sf9 cells using human histone H4 (1 to 15 residues) as substrate preincubated for 30 mins followed by [3H]-SAM addition
pIC50: −log10 of the molar value.
Parameter Measured: pIC50

[[record]]
compound = "O=c1[nH]c2ccc(-c3cccc(OCC(O)CN4CCc5ccccc5C4)c3)cc2[nH]1 (configuration not stated)"
parameter_measured = "pIC50"
assay_result = "6.00 to 7.00"

[[record]]
compound = "OC(COC1CCCCCC1)CN1CCc2ccccc2C1 (configuration not stated)"
parameter_measured = "pIC50"
assay_result = "5.00 to 6.00"


What measured pIC50 goes with CC1c2ccccc2CCN1CC(O)COc1cccc(CNC2CCCC2)c1 (configuration not stated) ?
5.00 to 6.00

====

# maps each entry to its EC50
- Assay Target: Protein arginine N-methyltransferase 5 (Homo sapiens, UniProt O14744)
- Assay Details: Inhibition of PRMT5 in human Z138 cells assessed as decrease in di-methyl arginine levels after 96 hrs by Western blot method

Recorded EC50, per entry:
[[record]]
compound = "CN(c1cccc(OCC(=O)NCC(O)CN2CCc3ccccc3C2)c1)S(C)(=O)=O (centres undefined)"
parameter_measured = "EC50"
assay_result = "0.101 to 1 µM"

[[record]]
compound = "OC(COc1cccc(-c2ccc3c(c2)OCCO3)c1)CN1CCc2ccccc2C1 (centres undefined)"
parameter_measured = "EC50"
assay_result = "1 to 10 µM"


Turning now to a further record.
Query the reported EC50 for Protein arginine N-methyltransferase 5 (Homo sapiens, UniProt O14744); item: O=C(COc1cccc(C(=O)N2CCOCC2)c1)NCC(O)CN1CCc2ccccc2C1 (centres undefined)
0.101 to 1 µM

====

# maps each entry to its pIC50
- Assay Target: PRMT5/MEP50 complex (Homo sapiens, UniProt O14744)
- Assay Details: Inhibition of recombinant human fetal brain FLAG-tagged PRMT5/full length human testis 6His-tagged MEP50 expressed in baculovirus infected insect Sf9 cells using human histone H4 (1 to 15 residues) as substrate preincubated for 30 mins followed by [3H]-SAM addition
pIC50: −log10 of the molar value.

[[record]]
compound = "CS(=O)(=O)c1cccc(-c2cccc(OCC(O)CN3CCc4ccccc4C3)c2)c1 (stereo unspecified)"
parameter_measured = "pIC50"
assay_result = "6.00 to 7.00"

[[record]]
compound = "CN1CCN(C(=O)Cn2ccc3cnc(-c4ccnc(NCC(O)CN5CCc6ccccc6C5)c4)nc32)CC1 (stereo unspecified)"
parameter_measured = "pIC50"
assay_result = "> 7.00"

[[record]]
compound = "COc1cccc2c1CN(CC(O)COc1cccc(-c3ccc4ncn(C)c4c3)c1)CC2 (stereo unspecified)"
parameter_measured = "pIC50"
assay_result = "5.00 to 6.00"

[[record]]
compound = "Nc1cccc(C(=O)NCC(O)CN2Cc3ccccc3C2)c1 (stereo unspecified)"
parameter_measured = "pIC50"
assay_result = "5.00 to 6.00"

[[record]]
compound = "C[C@@H](Oc1cccc2cccnc12)C(=O)NC[C@H](O)CN1Cc2ccccc2C1"
parameter_measured = "pIC50"
assay_result = "> 7.00"


What measured pIC50 goes with O=C1CN(Cc2cccnc2)CCN1CC(O)CN1CCc2ccccc2C1 (stereo unspecified) ?
5.00 to 6.00

What measured pIC50 goes with OC(COCc1ccccn1)CN1CCc2ccccc2C1 (stereo unspecified) ?
4.40 to 5.00

What measured pIC50 goes with OC(COCc1c(Cl)cccc1Cl)CN1CCc2ccccc2C1 (stereo unspecified) ?
5.00 to 6.00

What measured pIC50 goes with NC(=O)c1cccc(-c2cccc(OCC(O)CN3CCc4ccccc4C3)c2)c1 (stereo unspecified) ?
6.00 to 7.00

What measured pIC50 goes with N#Cc1cccc(-c2cccc(OCC(O)CN3CCc4ccccc4C3)c2)c1 (stereo unspecified) ?
6.00 to 7.00

What measured pIC50 goes with CS(=O)(=O)c1cccc(OCC(=O)NCC(O)CN2CCc3ccccc3C2)c1 (stereo unspecified) ?
> 7.00

====

# maps each entry to its IC50
- Assay Target: PRMT5/MEP50 complex (Homo sapiens)
- Assay Details: Inhibition of recombinant human fetal brain FLAG-tagged PRMT5/full length human testis 6His-tagged MEP50 expressed in baculovirus infected insect Sf9 cells using human histone H4 (1 to 15 residues) as substrate preincubated for 30 mins followed by [3H]-SAM addition

Recorded IC50, per entry:
[[record]]
compound = "CS(=O)(=O)Nc1cccc(C(=O)NCC(O)CN2CCc3ccccc3C2)c1 (stereo not given)"
assay_result = "< 100 nM"

[[record]]
compound = "OC(COc1cccc(CNC2CCOCC2)c1)CN1CCc2ccccc2C1 (stereo not given)"
assay_result = "101 to 1000 nM"

[[record]]
compound = "CC(C)(C)OC(=O)Nc1cccc(C(=O)NCC(O)CN2Cc3ccccc3C2)c1 (stereo not given)"
assay_result = "101 to 1000 nM"

[[record]]
compound = "O=C(NC[C@H](O)CN1CCc2ccccc2C1)Nc1ccccc1"
assay_result = "101 to 1000 nM"

[[record]]
compound = "Cn1cnc2ccc(-c3cccc(OCC(O)CN4CCc5ccccc5C4Cc4ccccc4)c3)cc21 (stereo not given)"
assay_result = "> 40000 nM"

[[record]]
compound = "O=C(CCc1ccccc1)NCC(O)CN1CCc2ccccc2C1 (stereo not given)"
assay_result = "1000 to 10000 nM"


What measured IC50 goes with CCCCNCc1cccc(COCC(O)CN2CCc3ccccc3C2)c1 (stereo not given) ?
101 to 1000 nM

What measured IC50 goes with COc1ccccc1-c1cccc(OCC(O)CN2CCc3ccccc3C2)c1 (stereo not given) ?
1000 to 10000 nM

What measured IC50 goes with Cn1cc2c(OCC(=O)NCC(O)CN3CCc4ccccc4C3)cccc2n1 (stereo not given) ?
101 to 1000 nM

What measured IC50 goes with CN1CCC(OCC(O)CN2CCc3ccccc3C2)CC1 (stereo not given) ?
> 40000 nM
